Recorded ERYTHROCYTE COUNT by entry
Species: Rattus norvegicus
Experiment: DrugMatrix - Regimen: Daily Repeat
Type: toxicity, organism-based, Sprague-Dawley
Set-up: regimen Daily Repeat, gender Male, age 6-8 weeks
Details: in vivo, po, 0 mg/kg, 72 h, tissue Blood, route oral GAVAGE, dose level Control, time 3 day, vehicle 100 % SALINE
readout: ERYTHROCYTE COUNT (x10E6/uL)

[
  {
    "compound": "O=[As][O-].[Na+] [SODIUM ARSENITE]",
    "result": 5.62
  },
  {
    "compound": "CCO [ALCOHOL]",
    "result": 5.62
  },
  {
    "compound": "Cc1ccnc2c1NC(=O)c1cccnc1N2C1CC1 [NEVIRAPINE]",
    "result": 5.75
  },
  {
    "compound": "CCN(CC)N=O [N-NITROSODIETHYLAMINE]",
    "result": 5.09
  },
  {
    "compound": "CC(CN1c2ccccc2Sc2ccccc21)N(C)C (stereo not given) [PROMETHAZINE]",
    "result": 5.46
  }
]

Each recorded value in this set is attributed to ChEMBL document CHEMBL3885881.
